Where do these numbers come from? They come from PubChem BioAssay (NCI).

Measured TGI of individual entries
Tested on: RPMI-8226 leukemia
Test: NCI tumour cell line growth inhibition, 48 h
Recorded Endpoint: TGI (µM)

1) CC(C)(C)OC(=O)N1CC(COS(C)(=O)=O)c2ccc(O)cc21 (stereo unspecified)    3.96
2) COc1ccc(/C=C2\CC(C)CC3C2=NN(C(C)=O)C3c2ccc(OC)c(OC)c2)cc1OC (stereo unspecified)    32
3) Cn1c([N+](=O)[O-])cnc1/C=C1\Oc2ccc(Cl)cc2C1=O    5.58
4) CCC1(CC)C(=O)N(C(=O)c2ccc(Cl)cc2)N(C(=O)c2ccccc2Cl)C1=O    78.9
5) CC1CCCC2(O1)OC1CC(=O)OC1C1=C2C(=O)c2ccccc2C1=O (stereo unspecified)    4.27
6) COc1cc(C2C(C(=O)Nc3ccc(Cl)c(Cl)c3)=C(C)NC(C)=C2C(=O)Nc2ccc(Cl)c(Cl)c2)ccc1O    30.1
7) O=C1/C(=C/c2ccc([N+](=O)[O-])s2)Oc2ccc(Cl)cc21    0.97
8) CCS(=O)(=O)Nc1ccc(Oc2ccc(F)cc2F)c(-c2cn(C)c(=O)c3[nH]ccc23)c1    17.5
9) CC(C)OC(=S)[S-].[Au+].c1ccc([PH+](c2ccccc2)c2ccccc2)cc1    4.01
10) CC1SC(c2cccc(Oc3ccccc3)c2)N(CCc2cccs2)C1=O (stereo unspecified)    2.94
11) Cc1cc(C)n(CN(Cn2nc(C)cc2C)c2ccc(N(Cn3nc(C)cc3C)Cn3nc(C)cc3C)cc2)n1    40
12) CN1CCN(Cc2ccc(NC(=O)c3cncc(C#Cc4c(N)ncc5ccc(F)cc45)c3)cc2C(F)(F)F)CC1    3.87
13) Cc1cc(N2CCOCC2)nc(N(CCNc2ccnc3cc(Cl)ccc23)Cc2cccs2)n1    4.04
14) COc1cc2c(cc1Nc1nc(Nc3ccsc3C(N)=O)c3cc[nH]c3n1)N(C(=O)CN(C)C)CCC2    6.56
15) O=C(C(Cl)=C(Nc1ccccc1)Nc1ccccc1)C(Cl)Cl    78.9
16) CN(C)CCCn1c2c(c3ccncc3c1=O)C(=O)c1ccccc1-2    7.62
17) CN(C)c1ccc(/C=C/C(=O)c2ccc(Nc3nc(Nc4ccc(F)cc4)nc(Nc4ccc(Cl)cc4)n3)cc2)cc1    26.5
18) CCCCCC(=O)OC[n+]1ccc2c(C)c3[nH]c4ccccc4c3c(C)c2c1    1.78
19) C=C1C(=O)O[C@H]2[C@H]1CC/C(Cn1cc(CNC(=O)c3cc4ccccc4[nH]3)nn1)=C\CC[C@@]1(C)O[C@@H]21    9.34
20) CC(C)Oc1c(O)c2c3c(oc(=O)n3C=CC2c2ccccc2F)c1OC(C)C (stereo unspecified)    51.9

###

System: 786-0 renal
Assay: NCI tumour cell line growth inhibition, 48 h
Recorded Endpoint: TGI (µM)

1) CCOC(=O)C(Cc1ccc(N(CCCl)CCCl)cc1)NC(=O)C(CC(C)C)NC(C)=O (stereo unspecified)    4.38
2) O=C(C(Cl)=C(Nc1ccccc1)Nc1ccccc1)C(Cl)Cl    69.1
3) N#Cc1c(-c2ccc(Cl)cc2)n([O-])c2ccccc2[n+]1=O    25
4) CN(C)CCCNc1ccc2nnn3c4ccc([N+](=O)[O-])cc4c(=O)c1c23    13
5) COc1ccc(C2Oc3cc(OC)c(O)cc3[C@@H]2C)cc1 (stereo partly specified)    31.3
6) COc1cc2c(c(OC)c1OC)-c1c(c3ccc([N+](=O)[O-])cc3c(=O)n1CCCN=[N+]=[N-])C2=O    43.8
7) C[CH2][Ge]1([CH2]C)[CH2]CC2(CCN(CCCN(C)C)C2)C[CH2]1    2.87

###

System: HOP-92 NSCLC
Experiment: NCI tumour cell line growth inhibition, 48 h; in the data active = GI50 below about 0.43 µM; inactive = the rest
Outcome codes: active, inactive

1. CNCc1ccc(C)c(NC(=O)c2ccc(Nc3nc(-c4ccccc4)c4ccccc4n3)cc2)c1    inactive
2. COc1ccc(/C(C)=C(\c2ccc(Cl)cc2)c2ccc(OCCN3CCCCC3)cc2)cc1F    inactive
3. CCN(CC)CCC(CNc1c2ccc(Cl)cc2nc2ccc(OC)cc12)c1ccccc1 (stereo not given)    inactive
4. Cc1ccc(S(=O)(=O)NC(CCCCN)C(=O)CCl)cc1 (stereo not given)    inactive
5. C#Cc1cccc(NC(=O)Nc2cccc(NC(=O)CCl)c2)c1    inactive
6. Nc1cc(N)c2nc(-c3ccccc3)c(Sc3ccc(F)cc3)nc2c1    inactive
7. COc1ccc(-c2nccn2-c2cc(OC)c(OC)c(OC)c2)cc1    inactive
8. C[As](C)SCC(COC(=O)c1ccccc1)OC(=O)c1ccccc1 (stereo not given)    active
9. Oc1ccc(-c2nc(-c3ccc4oc5ccc(-c6[nH]c(-c7ccc(O)cc7)nc6-c6ccccc6)cc5c4c3)c(-c3ccccc3)[nH]2)cc1    inactive
10. N#CC1=C(N)Oc2c(ccc3ccccc23)C1c1ccccc1Cl (stereo not given)    inactive

###

System: MDA-N
Experiment: NCI tumour cell line growth inhibition, 48 h
Recorded Endpoint: TGI

1) O=C(NC(c1ccccc1)C(O)C(=O)OCc1ccc2c(c1)C(=O)c1ccccc1C2=O)c1ccccc1 (configuration not stated)    > 100 µM
2) Cn1c(N)c(N=Nc2ccc(S(N)(=O)=O)cc2)c(=O)n(C)c1=O    > 100 µM
3) CCCCCCCCCCCCCCCCCc1nc(C#N)c(N)o1    > 100 µM
4) C[C@H]1C(=O)C2=C[C@H]1CCC(=O)[C@]1(C)CCCC(C)(C)[C@H]1C[C@H]2O    > 100 µM
5) CCOC(=O)C1(C/C=C\CBr)CCCCCCC1=O (configuration not stated)    > 100 µM
6) O=C1c2cccc3cc4ccccc4c(c23)C(=O)N1CCCNCCNCCCN1C(=O)c2cccc3cc4ccccc4c(c23)C1=O    1.82 µM
7) O=C1NC(N2CCCC(CO)C2)=N/C1=C\c1ccc(O)cc1 (configuration not stated)    > 100 µM
8) CCO/C=N/C1=C(C#N)C(c2ccc(OC)c(OC)c2)c2c(-c3ccccc3)nn(-c3ccccc3)c2O1 (configuration not stated)    35.5 µM
9) COc1cccc(C(=O)C(O)c2cccc(OC)c2OC)c1OC (configuration not stated)    > 100 µM
10) CCC1(CC)C(=O)N(C(=O)c2ccc(Cl)cc2)N(C(=O)c2ccccc2Cl)C1=O    > 100 µM
11) c1ccc(C2(c3cc4ccccc4[nH]3)OCCO2)cc1    > 100 µM
12) Nc1nc(N)c2nn(-c3ccc(C(=O)O)cc3)nc2n1    > 100 µM
13) O=c1[nH]/c(=C/c2ccc(OCc3ccccc3)cn2)c(=O)[nH]/c1=C/c1cccnc1    0.71 µM
14) C[N+]12C=CC=C1C(N1CCCC1)c1sc(-c3ccc(Cl)cc3)cc12 (configuration not stated)    30.4 µM
15) Cc1ccc(-n2cc(-c3ccc(Cl)cc3)c3c(NNC(=S)NCc4ccccc4)ncnc32)cc1    > 100 µM
16) NC(N)=NS(=O)(=O)c1ccc(NC(=O)c2c3ccccc3nc3ccccc23)cc1    > 100 µM
17) NC(=O)NOCC1NC(=O)NC1=O (configuration not stated)    > 100 µM
18) CCCC1C2=C(C(=O)OC2=O)C2C(CC)CC3=C(C(=O)OC3=O)C12 (configuration not stated)    > 100 µM
19) CN(C)/C=C/c1ccnc2c1C(=O)c1ccccc1C2=O    3.03 µM
20) COC(=O)c1ccc2[nH]c3c(c2c1)CC(=O)Nc1ccccc1-3    > 100 µM
21) COC(=O)c1cc(CNCCc2c[nH]c3ccccc23)on1    > 100 µM
22) CCOC(=O)C1C(=O)C=C(c2cc(C)ccc2O)CC1c1cccc(Br)c1 (configuration not stated)    21.2 µM

###

System: CAKI-1 renal
Test: NCI tumour cell line growth inhibition, 48 h
Measured TGI of individual entries
Recorded Endpoint: TGI (µM)

1) O=C1N[C@@H](c2c[nH]c3ccc(Br)cc23)C(=O)N[C@H]1c1c[nH]c2ccc(Br)cc12    30.4
2) CN(C)CCCn1c2c(c3ccc([N+](=O)[O-])cc3c1=O)C(=O)c1ccccc1-2    19.7
3) CC[N+]1(C)CCC(O)(/C=C/c2ccccc2)C(C(=O)/C=C/c2ccccc2)C1 (centres undefined)    3.42
4) COc1ccc(C2Oc3cc(OC)c(O)cc3[C@@H]2C)cc1 (some centres undefined)    96.2

###

System: HCC-2998 colon
Assay: NCI tumour cell line growth inhibition, 48 h
Measured GI50 of individual entries
Recorded Endpoint: GI50

1. CCS(=O)(=O)Nc1ccc(Oc2ccc(F)cc2F)c(-c2cn(C)c(=O)c3[nH]ccc23)c1    0.0342 µM
2. COC(=O)[C@@H](C)C[C@H](Cc1ccccc1)NC(=O)c1cccc([C@@H](C[C@H](C(C)C)N(C)C(=O)[C@@H](NC(=O)[C@H]2CCCCN2C)C(C)C)OC(C)=O)n1    < 0.00167 µM
3. COc1ccc(/C=C2\CC(C)CC3C2=NN(C(C)=O)C3c2ccc(OC)c(OC)c2)cc1OC (centres undefined)    12 µM
4. CCCCCCCCCCCCOC1C(C(COC2OC(C(O)CO)C3OC(C)(C)OC23)OC(=O)Nc2ccc([N+](=O)[O-])cc2)OC2OC(C)(C)OC21 (centres undefined)    11.6 µM
